All values here come from patent US20120251547A1.

assay.target: T1, huIL-17RA-FLAG-polyHis (human, UniProt Q96F46 33-320)
T1 construct: also called IL-17RA-FLAG-pHis; wild-type IL-17RA
assay.remarks: binning; IL-17RA held by bead mAb G
Listing of entries alongside the reported normalized MFI.
No unit in the answer, only the number.

{"columns": ["binder", "normalized MFI"],
 "data": [
  ["AMH8/AML8 (antibody, IgG2, V domains shown, human mAb from IgG2 XenoMouse mice; also called AM-8; antibody C) VH: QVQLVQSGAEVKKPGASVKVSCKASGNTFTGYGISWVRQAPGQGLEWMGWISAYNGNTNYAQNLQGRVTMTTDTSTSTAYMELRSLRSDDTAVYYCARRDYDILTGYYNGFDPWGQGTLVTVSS VL: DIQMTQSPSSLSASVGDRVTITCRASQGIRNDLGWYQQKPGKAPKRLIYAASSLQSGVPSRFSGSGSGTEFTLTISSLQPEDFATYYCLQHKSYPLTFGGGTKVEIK", 346],
  ["AMH20/AML20 (antibody, IgG2, V domains shown, human mAb from IgG2 XenoMouse mice; also called AM-20; antibody R) VH: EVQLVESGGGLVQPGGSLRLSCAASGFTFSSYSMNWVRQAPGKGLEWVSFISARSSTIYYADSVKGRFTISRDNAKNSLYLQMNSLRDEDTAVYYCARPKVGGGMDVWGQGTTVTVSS VL: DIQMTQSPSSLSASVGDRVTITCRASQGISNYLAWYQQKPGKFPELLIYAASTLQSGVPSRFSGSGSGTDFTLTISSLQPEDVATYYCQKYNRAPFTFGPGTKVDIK", 4020],
  ["AMH11/AML11 (antibody, IgG2, V domains shown, human mAb from IgG2 XenoMouse mice; also called AM-11; antibody A) VH: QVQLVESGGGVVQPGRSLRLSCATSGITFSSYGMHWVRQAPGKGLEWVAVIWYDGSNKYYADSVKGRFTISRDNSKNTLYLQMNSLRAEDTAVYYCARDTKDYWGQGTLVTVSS VL: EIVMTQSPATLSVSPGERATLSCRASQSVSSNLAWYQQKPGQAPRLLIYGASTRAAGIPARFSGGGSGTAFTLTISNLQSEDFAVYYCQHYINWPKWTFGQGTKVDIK", 454]
]}

# get_value(readout='normalized MFI', item= AMH6/AML6 (antibody, IgG2, V domains shown, human mAb from IgG2 XenoMouse mice; also called AM-6; antibody E) VH: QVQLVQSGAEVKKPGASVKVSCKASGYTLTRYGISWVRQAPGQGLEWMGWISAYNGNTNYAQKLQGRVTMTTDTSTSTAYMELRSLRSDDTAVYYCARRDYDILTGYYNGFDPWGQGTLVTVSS VL: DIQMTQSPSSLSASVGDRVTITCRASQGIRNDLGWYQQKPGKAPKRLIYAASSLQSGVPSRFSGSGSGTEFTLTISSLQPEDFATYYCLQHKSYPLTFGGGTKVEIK )
334

# get_value(readout='normalized MFI', item= AMH16/AML16 (antibody, IgG2, V domains shown, human mAb from IgG2 XenoMouse mice; also called AM-16; antibody O) VH: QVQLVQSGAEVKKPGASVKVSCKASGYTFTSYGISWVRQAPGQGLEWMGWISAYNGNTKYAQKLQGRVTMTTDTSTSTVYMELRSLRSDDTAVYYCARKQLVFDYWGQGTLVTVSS VL: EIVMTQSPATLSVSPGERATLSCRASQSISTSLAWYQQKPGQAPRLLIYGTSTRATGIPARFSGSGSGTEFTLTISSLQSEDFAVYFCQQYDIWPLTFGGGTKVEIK )
4490
